Ref: paper PMC4434323

# Target Or Test System: ceh-26 (K12H4.1) (Caenorhabditis elegans)
# Sequence: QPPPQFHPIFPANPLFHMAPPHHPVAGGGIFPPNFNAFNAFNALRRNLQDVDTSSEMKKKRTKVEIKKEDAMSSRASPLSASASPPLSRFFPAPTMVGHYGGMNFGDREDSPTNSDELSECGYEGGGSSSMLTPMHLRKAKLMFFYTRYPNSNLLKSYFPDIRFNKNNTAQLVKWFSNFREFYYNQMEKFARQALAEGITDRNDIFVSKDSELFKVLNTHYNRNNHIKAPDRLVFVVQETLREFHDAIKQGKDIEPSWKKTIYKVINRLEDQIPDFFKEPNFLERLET
Property Label: binding signal (PBM E-score (-0.5 to 0.5))

A selection of reference data follows.
[[record]]
residue_string = "AACATCTT (double strand) [8-mer AACATCTT]"
experimental_result = 0.457

[[record]]
residue_string = "TCTTAAGA (double strand) [8-mer TCTTAAGA]"
experimental_result = 0.482

[[record]]
residue_string = "AAGATCTT (double strand) [8-mer AAGATCTT]"
experimental_result = 0.457


Ask: Requested read-out: binding signal (PBM E-score (-0.5 to 0.5)). Entry: AAGACATT (double strand) [8-mer AAGACATT]
Reply: 0.458

Ask: Entry CGTCTTGA (double strand) [8-mer CGTCTTGA] please
Reply: 0.454

Ask: Entry CAAGAAAA (double strand) [8-mer CAAGAAAA] please
Reply: 0.469

Ask: Entry TGAAGAAA (double strand) [8-mer TGAAGAAA] please
Reply: 0.453

Ask: Entry CGAAGAAA (double strand) [8-mer CGAAGAAA] please
Reply: 0.453

Ask: Entry AAGAAAGT (double strand) [8-mer AAGAAAGT] please
Reply: 0.456

Ask: Entry TCAAGAAA (double strand) [8-mer TCAAGAAA] please
Reply: 0.462

Ask: Entry AACGTCTT (double strand) [8-mer AACGTCTT] please
Reply: 0.48

Ask: Entry CCAAGAAA (double strand) [8-mer CCAAGAAA] please
Reply: 0.472
